B1: FAM9B (parent)
chain: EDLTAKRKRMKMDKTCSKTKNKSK

# Variants of: B1
# ASSAY METHOD TEXT: protein stability index of a GFP-peptide fusion (GPS, HEK-293T) (PSI 1-6); higher = more stable;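 also: lentivirally expressed fusions sorted by FACS into six bins by GFP to DsRed ratio, PSI derived from sequencing read proportions per bin multiplied by bin number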
# RUN CONDITIONS: c terminus: a fixed tail appended
MEASUREMENT TYPE: protein stability index
Answers are plain numbers.

K20H | 5.24
C16D | 5.67
T15S | 4.24
N21T | 5.42
S23G | 5.07

// input: 4 variants below; output: protein stability index for each
1. D2M
2. M10E
3. K22I
4. D13T

1: 4.44; 2: 5.43; 3: 3.59; 4: 5.01

// input: 2 variants below; output: protein stability index for each
1. R9A
2. D2A

1: 5.33; 2: 5.42

# credit: the supplement of paper PMC10567573
